Target: T1, cMet-Fc fusion protein (extracellular domain of the cMet receptor expressed as an Fc-fusion protein) (human, UniProt P08581 25-932)
T1 construct: extracellular domain; also called soluble cMet-Fc-fusion protein; soluble cMet receptor; not shown: Fc part
T1 sequence (P08581 25-932): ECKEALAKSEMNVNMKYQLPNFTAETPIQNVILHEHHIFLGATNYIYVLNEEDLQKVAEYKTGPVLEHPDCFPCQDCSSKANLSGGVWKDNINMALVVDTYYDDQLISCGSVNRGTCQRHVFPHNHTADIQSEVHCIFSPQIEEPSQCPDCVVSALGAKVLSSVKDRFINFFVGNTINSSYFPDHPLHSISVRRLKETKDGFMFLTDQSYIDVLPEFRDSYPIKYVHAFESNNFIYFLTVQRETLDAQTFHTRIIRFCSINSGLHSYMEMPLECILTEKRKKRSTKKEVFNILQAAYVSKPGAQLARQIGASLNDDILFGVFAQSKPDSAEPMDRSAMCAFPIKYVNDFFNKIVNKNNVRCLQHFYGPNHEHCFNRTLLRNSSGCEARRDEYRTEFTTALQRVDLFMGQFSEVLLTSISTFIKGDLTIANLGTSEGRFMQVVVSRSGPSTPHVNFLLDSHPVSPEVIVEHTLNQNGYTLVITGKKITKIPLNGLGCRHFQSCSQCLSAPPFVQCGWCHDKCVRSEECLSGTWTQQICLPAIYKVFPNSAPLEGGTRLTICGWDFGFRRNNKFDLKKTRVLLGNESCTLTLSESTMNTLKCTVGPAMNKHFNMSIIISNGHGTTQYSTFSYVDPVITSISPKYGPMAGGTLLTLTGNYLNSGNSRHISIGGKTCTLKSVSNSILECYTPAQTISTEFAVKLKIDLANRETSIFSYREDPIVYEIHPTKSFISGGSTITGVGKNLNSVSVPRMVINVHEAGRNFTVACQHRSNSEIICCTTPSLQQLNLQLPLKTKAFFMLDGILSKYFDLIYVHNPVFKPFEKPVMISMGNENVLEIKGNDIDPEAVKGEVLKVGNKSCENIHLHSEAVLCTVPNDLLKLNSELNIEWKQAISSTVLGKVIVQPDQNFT
Assay: phage ELISA on cMet-Fc, competitor HGF 500 ng/mL
Threshold check on % of binding in the absence of HGF: strictly below 60% is yes; on or above 60% is no.

| binder | class_label |
| --- | --- |
| GDLLVCKFDDKFWTETCEWADP [549-G05 peptide-displaying phage (SEQ ID NO: 392)] | yes |
| AQEWEREYFVDGFWGSWFGIPH [130-E10 peptide-displaying phage (SEQ ID NO: 472)] | no |
| AGYWSCAGPPMFMCTWQGT [552-G03 peptide-displaying phage (SEQ ID NO: 079)] | no |
| AGYTSCVGPPSFECTPYGT [323-A11 peptide-displaying phage (SEQ ID NO: 059)] | yes |
| GSFILCWWTFCDTNAP [569-C03 peptide-displaying phage (SEQ ID NO: 007)] | no |
| AGYFHCSGSPWFQCDYYGT [550-G08 peptide-displaying phage (SEQ ID NO: 081)] | yes |
| AQMGHHWDVQWDYKLFHVARGD [136-D01 peptide-displaying phage (SEQ ID NO: 473)] | no |
| GSFWNCTTDLGAMSDCGFFAP [445-E07 peptide-displaying phage (SEQ ID NO: 383)] | no |
| AGSIQCVGPPSFECTPYGT [335-D11 peptide-displaying phage (SEQ ID NO: 074)] | yes |
| GSSHCNQMITPWQNCGMRAP [446-E12 peptide-displaying phage (SEQ ID NO: 374)] | no |
| AQHSVQRQMDVWMPVQFMAGFT [02-B08 peptide-displaying phage (SEQ ID NO: 467)] | no |
| GSEYSCRTSRCIFSAP [452-F01 peptide-displaying phage (SEQ ID NO: 006)] | no |
| GDYDYCDFDLETYIPECHSYDP [546-G02 peptide-displaying phage (SEQ ID NO: 390)] | yes |
| AGEWWCHGPPEFLCYWTGT [331-F01 peptide-displaying phage (SEQ ID NO: 072)] | no |
| GDYRMCQISDMWGNYECSSDDP [548-G05 peptide-displaying phage (SEQ ID NO: 400)] | yes |
| AQDLKPWTAGWEPPWLWTDRGP [104-C09 peptide-displaying phage (SEQ ID NO: 461)] | yes |
| GDGFLCRWENGWCEFWDP [545-E08 peptide-displaying phage (SEQ ID NO: 047)] | yes |
| AGETKCSGPPYFYCWMEGT [545-E04 peptide-displaying phage (SEQ ID NO: 093)] | yes |
| GSMLGCLFEHQNKYDCYVLAP [443-D04 peptide-displaying phage (SEQ ID NO: 379)] | no |
| GSGDPCSPGPSINGHCSVMAP [453-A05 peptide-displaying phage (SEQ ID NO: 382)] | yes |
| GSEFECTGWPEFRCYEYAP [548-C10 peptide-displaying phage (SEQ ID NO: 100)] | yes |
| AGTMYCLGPPTFICQQYGT [548-C06 peptide-displaying phage (SEQ ID NO: 084)] | no |
| AGGWECTGPPWFQCGYYGT [334-C08 peptide-displaying phage (SEQ ID NO: 067)] | yes |
